molecular target: human serotonin 5-HT2A receptor (Homo sapiens, UniProt P28223)
Sequence (P28223 whole entry): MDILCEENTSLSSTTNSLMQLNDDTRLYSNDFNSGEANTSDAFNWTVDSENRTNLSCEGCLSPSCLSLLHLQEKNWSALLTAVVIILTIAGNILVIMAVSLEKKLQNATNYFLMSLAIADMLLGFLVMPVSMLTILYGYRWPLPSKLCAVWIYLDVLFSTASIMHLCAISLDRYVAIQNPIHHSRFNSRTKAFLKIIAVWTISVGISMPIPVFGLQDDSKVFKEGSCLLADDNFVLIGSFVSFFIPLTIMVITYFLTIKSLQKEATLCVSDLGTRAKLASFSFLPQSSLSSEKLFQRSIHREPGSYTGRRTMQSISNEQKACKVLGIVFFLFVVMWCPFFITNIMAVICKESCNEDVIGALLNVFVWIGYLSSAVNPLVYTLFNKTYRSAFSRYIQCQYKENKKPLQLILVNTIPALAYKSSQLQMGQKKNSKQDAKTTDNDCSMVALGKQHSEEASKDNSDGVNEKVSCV
Readout Name: Ki (nM)

* CN(C)[C@@H]1Cc2ccccc2[C@@H](c2ccccc2)C1 [(+)-trans-PAT] | 470

====

molecular target: UniProt P41595
Sequence (P41595 whole entry): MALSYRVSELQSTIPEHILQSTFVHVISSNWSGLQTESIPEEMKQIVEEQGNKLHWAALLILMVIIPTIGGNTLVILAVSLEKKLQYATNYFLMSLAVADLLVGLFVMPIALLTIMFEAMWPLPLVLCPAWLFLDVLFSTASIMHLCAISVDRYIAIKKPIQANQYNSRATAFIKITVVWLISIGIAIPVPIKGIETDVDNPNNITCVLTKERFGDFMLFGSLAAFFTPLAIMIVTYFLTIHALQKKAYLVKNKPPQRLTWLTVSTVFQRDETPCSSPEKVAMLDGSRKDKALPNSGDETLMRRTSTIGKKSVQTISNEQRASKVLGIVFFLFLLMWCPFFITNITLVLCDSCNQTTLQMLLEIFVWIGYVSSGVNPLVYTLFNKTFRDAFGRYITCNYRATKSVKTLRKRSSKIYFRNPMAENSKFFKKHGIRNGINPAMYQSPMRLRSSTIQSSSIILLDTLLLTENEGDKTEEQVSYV
Readout Name: Ki (nM)

- CN(C)[C@@H]1Cc2ccccc2[C@@H](c2ccccc2)C1 [(+)-trans-PAT]: 240

This collection of values is drawn from paper PMC4363177.
